Origin of measurements: the supplement of paper PMC5998384

system: HeLa Kyoto; assay: solubility change mitosis vs G1/S (difference of NP-40 vs SDS log2 ratios) (log2 ratio difference); higher = more soluble in mitosis;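 also: synchronized HeLa Kyoto cells (double thymidine block for G1/S, nocodazole release for mitosis), protein amounts in NP-40 versus SDS lysates quantified by mass spectrometry, three biological replicates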
For each of the sequences below, state its solubility change mitosis (log2).
One number for each entry.

For orientation, consider the following solved cases.
MGEAGAGAGASGGPEASPEAEVVKLLPFLAPGARADLQAAAVRHVLALTGCGPGRALLAGQAALLQALMELAPASAPARDAARALVNLAADPGLHETLLAADPGLPARLMGRALDPQWPWAEEAAAALANLSREPAPCAALMAALAAAEPADSGLERLVRALCTPGYNARAPLHYLAPLLSNLSQRPAARAFLLDPDRCVVQRLLPLTQYPDSSVRRGGVVGTLRNCCFEHRHHEWLLGPEVDILPFLLLPLAGPEDFSEEEMERLPVDLQYLPPDKQREPDADIRKMLVEAIMLLTATAPGRQQVRDQGAYLILRELHSWEPEPDVRTACEKLIQVLIGDEPERGMENLLEVQVPEDVEQQLQQLDCREQEQLERELAPEPWVERATPT [HGH1]: 0.156
MEPKVAELKQKIEDTLCPFGFEVYPFQVAWYNELLPPAFHLPLPGPTLAFLVLSTPAMFDRALKPFLQSCHLRMLTDPVDQCVAYHLGRVRESLPELQIEIIADYEVHPNRRPKILAQTAAHVAGAAYYYQRQDVEADPWGNQRISGVCIHPRFGGWFAIRGVVLLPGIEVPDLPPRKPHDCVPTRADRIALLEGFNFHWRDWTYRDAVTPQERYSEEQKAYFSTPPAQRLALLGLAQPSEKPSSPSPDLPFTTPAPKKPGNPSRARSWLSPRVSPPASPGP [MMACHC]: 0.0886
MASASARGNQDKDAHFPPPSKQSLLFCPKSKLHIHRAEISKIMRECQEESFWKRALPFSLVSMLVTQGLVYQGYLAANSRFGSLPKVALAGLLGFGLGKVSYIGVCQSKFHFFEDQLRGAGFGPQHNRHCLLTCEECKIKHGLSEKGDSQPSAS [OCIAD2]: -0.0442

Give measured solubility change mitosis (log2) for every item shown.
1. MVFYFTSSSVNSSAYTIYMGKDKYENEDLIKHGWPEDIWFHVDKLSSAHVYLRLHKGENIEDIPKEVLMDCAHLVKANSIQGCKMNNVNVVYTPWSNLKKTADMDVGQIGFHRQKDVKIVTVEKKVNEILNRLEKTKVERFPDLAAEKECRDREERNEKKAQIQEMKKREKEEMKKKREMDELRSYSSLMKVENMSSNQDGNDSDEFM [CCDC25]
2. MLRWTRAWRLPREGLGPHGPSFARVPVAPSSSSGGRGGAEPRPLPLSYRLLDGEAALPAVVFLHGLFGSKTNFNSIAKILAQQTGRRVLTVDARNHGDSPHSPDMSYEIMSQDLQDLLPQLGLVPCVVVGHSMGGKTAMLLALQRPELVERLIAVDISPVESTGVSHFATYVAAMRAINIADELPRSRARKLADEQLSSVIQDMAVRQHLLTNLVEVDGRFVWRVNLDALTQHLDKILAFPQRQESYLGPTLFLLGGNSQFVHPSHHPEIMRLFPRAQMQTVPNAGHWIHADRPQDFIAAIRGFLV [ABHD11]
3. MKGLYFQQSSTDEEITFVFQEKEDLPVTEDNFVKLQVKACALSQINTKLLAEMKMKKDLFPVGREIAGIVLDVGSKVSFFQPDDEVVGILPLDSEDPGLCEVVRVHEHYLVHKPEKVTWTEAAGSIRDGVRAYTALHYLSHLSPGKSVLIMDGASAFGTIAIQLAHHRGAKVISTACSLEDKQCLERFRPPIARVIDVSNGKVHVAESCLEETGGLGVDIVLDAGVRLYSKDDEPAVKLQLLPHKHDIITLLGVGGHWVTTEENLQLDPPDSHCLFLKGATLAFLNDEVWNLSNVQQGKYLCILKDVMEKLSTGVFRPQLDEPIPLYEAKVSMEAVQKNQGRKKQVVQF [CRYZL1]
4. MASYPYRQGCPGAAGQAPGAPPGSYYPGPPNSGGQYGSGLPPGGGYGGPAPGGPYGPPAGGGPYGHPNPGMFPSGTPGGPYGGAAPGGPYGQPPPSSYGAQQPGLYGQGGAPPNVDPEAYSWFQSVDSDHSGYISMKELKQALVNCNWSSFNDETCLMMINMFDKTKSGRIDVYGFSALWKFIQQWKNLFQQYDRDRSGSISYTELQQALSQMGYNLSPQFTQLLVSRYCPRSANPAMQLDRFIQVCTQLQVLTEAFREKDTAVQGNIRLSFEDFVTMTASRML [PEF1]
5. MTTTTTFKGVDPNSRNSSRVLRPPGGGSNFSLGFDEPTEQPVRKNKMASNIFGTPEENQASWAKSAGAKSSGGREDLESSGLQRRNSSEASSGDFLDLKGEGDIHENVDTDLPGSLGQSEEKPVPAAPVPSPVAPAPVPSRRNPPGGKSSLVLG [HN1]
6. MAQPPPDVEGDDCLPAYRHLFCPDLLRDKVAFITGGGSGIGFRIAEIFMRHGCHTVIASRSLPRVLTAARKLAGATGRRCLPLSMDVRAPPAVMAAVDQALKEFGRIDILINCAAGNFLCPAGALSFNAFKTVMDIDTSGTFNVSRVLYEKFFRDHGGVIVNITATLGNRGQALQVHAGSAKAAVDAMTRHLAVEWGPQNIRVNSLAPGPISGTEGLRRLGGPQASLSTKVTASPLQRLGNKTEIAHSVLYLASPLASYVTGAVLVADGGAWLTFPNGVKGLPDFASFSAKL [DECR2]
7. MMAGCGEIDHSINMLPTNRKANESCSNTAPSLTVPECAICLQTCVHPVSLPCKHVFCYLCVKGASWLGKRCALCRQEIPEDFLDKPTLLSPEELKAASRGNGEYAWYYEGRNGWWQYDERTSRELEDAFSKGKKNTEMLIAGFLYVADLENMVQYRRNEHGRRRKIKRDIIDIPKKGVAGLRLDCDANTVNLARESSADGADSVSAQSGASVQPLVSSVRPLTSVDGQLTSPATPSPDASTSLEDSFAHLQLSGDNTAERSHRGEGEEDHESPSSGRVPAPDTSIEETESDASSDSEDVSAVVAQHSLTQQRLLVSNANQTVPDRSDRSGTDRSVAGGGTVSVSVRSRRPDGQCTVTEV [RNF146]

[-0.118, 0.0439, -0.249, 0.345, 0.268, -0.232, -0.158]

Fill blank: measured solubility change mitosis (log2) of the sequence MAELDPFGAPAGAPGGPALGNGVAGAGEEDPAAAFLAQQESEIAGIENDEAFAILDGGAPGPQPHGEPPGGPDAVDGVMNGEYYQESNGPTDSYAAISQVDRLQSEPESIRKWREEQMERLEALDANSRKQEAEWKEKAIKELEEWYARQDEQLQKTKANNRVADEAFYKQPFADVIGYVTNINHPCYSLEQAAEEAFVNDIDESSPGTEWERVARLCDFNPKSSKQAKDVSRMRSVLISLKQAPLVH [CLTA] is ____.
0.362
